So I've got a bunch of compounds here, and I need their collision cross section values.
- measurement_notes: collision cross section (TIMS, N2 drift gas) of the primary ion; higher = larger gas-phase ion size
- experimental_context: ionization mode: ESI+; ion species: [M+H]+
Provide the measurement as a number trailed by its unit.

Guide cases for collision cross section, answers given:
[
  {
    "compound": "CCCCCCCCCC(=O)N(C)C [N,N-Dimethyldecan-1-amide]",
    "meas_value": "159.08 Å²"
  },
  {
    "compound": "COc1ccc2c(c1)[nH]c1c(C)nccc12",
    "meas_value": "145.04 Å²"
  },
  {
    "compound": "O=P1(NCCCl)OCCCN1CCCl (centres undefined) [Ifosfamide]",
    "meas_value": "148.36 Å²"
  },
  {
    "compound": "CC(=O)Nc1ccc(S(=O)(=O)Nc2cc(C)on2)cc1",
    "meas_value": "169.12 Å²"
  },
  {
    "compound": "COc1ccc2c3c1O[C@H]1C[C@@H](O)C=C[C@@]31CCN(C)C2",
    "meas_value": "169.25 Å²"
  },
  {
    "compound": "CCCCCCCCSc1nc(Nc2cc(C(C)(C)C)c(O)c(C(C)(C)C)c2)nc(SCCCCCCCC)n1",
    "meas_value": "263.3 Å²"
  },
  {
    "compound": "O=C(Nc1ccccc1)Nc1ccccc1",
    "meas_value": "148.26 Å²"
  },
  {
    "compound": "CC(=O)Nc1c(I)c(NC(C)=O)c(I)c(C(=O)O)c1I [Diatrizoate]",
    "meas_value": "179.28 Å²"
  }
]

Turning now to a further compound:
Please report the recorded collision cross section for `CC(C)N(C(=O)COc1nnc(C(F)(F)F)s1)c1ccc(F)cc1` . 178.11 Å²

* * *

- measurement_notes: collision cross section (TIMS, N2 drift gas) of the primary ion; higher = larger gas-phase ion size
- experimental_context: ionization mode: ESI+; ion species: [M+H]+
reported_endpoint: collision cross section
Remember to put the unit after the number in your answer.

[
  {
    "molecule": "COc1cc2nc(N3CCNCC3)nc(N)c2cc1OC",
    "meas_value": "172.06 Å²"
  }
]

Quick request: collision cross section for each listed item, please.
1. CCCC1COC(Cn2cncn2)(c2ccc(Cl)cc2Cl)O1 (stereo not drawn)
2. CCNC(=O)[C@@H](C)OC(=O)Nc1ccccc1 [Carbetamide]
3. C[C@H]1[C@H](C)CC[C@]2(C(=O)O)CC[C@]3(C)C(=CC[C@@H]4[C@@]5(C)CC[C@H](O)C(C)(C)[C@@H]5CC[C@]43C)[C@H]12
4. O=C1CCCCCCCCCCCN1

1. 179.72 Å²
2. 155.79 Å²
3. 208.26 Å²
4. 148.39 Å²

* * *

- measurement_notes: reversed-phase LC retention time (C18, 15 min MeOH gradient); higher = more hydrophobic / later elution
- experimental_context: ionization mode: ESI+; ion species: [M+H]+
reported_endpoint: reversed-phase LC retention time (min)
Answers are plain numbers, in min.

Below, each entry is followed by its recorded reversed-phase LC retention time result.
[
  {
    "molecule": "CC(C)NCC(O)COc1ccc(COCCOC(C)C)cc1 (centres undefined)",
    "reversed-phase LC retention time [min]": 11
  },
  {
    "molecule": "CCN(CCC#N)c1ccc(N=Nc2c(Br)cc([N+](=O)[O-])cc2Br)cc1",
    "reversed-phase LC retention time [min]": 16.8
  },
  {
    "molecule": "CCCCC(=O)O[C@]1(C(=O)CO)[C@@H](C)C[C@H]2[C@@H]3CCC4=CC(=O)C=C[C@]4(C)[C@@]3(F)[C@@H](O)C[C@@]21C [Betamethasone-17-valerate]",
    "reversed-phase LC retention time [min]": 15.5
  },
  {
    "molecule": "CC(C)C(=O)OCC(C)(C)C(OC(=O)C(C)C)C(C)C (centres undefined) [2,2,4-Trimethyl-1,3-pentanediol diisobutyrate]",
    "reversed-phase LC retention time [min]": 17
  },
  {
    "molecule": "Cc1c(C(C)C)c(=O)n(-c2ccccc2)n1C",
    "reversed-phase LC retention time [min]": 12.3
  }
]

Go through the items and report each one's reversed-phase LC retention time.
1. C=C(C)C(=O)NCCCN(C)C [N-(3-Dimethylamino)propyl)methacrylamide]
2. COCC(C)N(C(=O)CS(=O)(=O)O)c1c(C)csc1C (centres undefined)
3. c1ccc2c(c1)[nH]c1cnccc12
4. Cc1ccc(O)c(-n2nc3ccccc3n2)c1
5. O=C1NC(=O)C2CC=CCC12 (centres undefined) [Tetrahydrophthalimide]
6. Cc1cc(N)c2ccccc2n1
7. COC(=O)C(c1ccccc1Cl)N1CCc2sccc2C1 (centres undefined)

1. 3.22
2. 10.9
3. 8.24
4. 16.7
5. 5.38
6. 6.89
7. 15.4

* * *

- measurement_notes: reversed-phase LC retention time (C18, 15 min MeOH gradient); higher = more hydrophobic / later elution
- experimental_context: ionization mode: ESI+; ion species: [M+H]+
reported_endpoint: reversed-phase LC retention time (min)
Give bare numbers, in min.

[
  {
    "compound": "C[C@]12CC(=O)[C@H]3[C@@H](CCC4=CC(=O)CC[C@@]43C)[C@@H]1CC[C@@H]2O",
    "reversed-phase LC retention time / min": 12.6
  },
  {
    "compound": "CCCCNC(=O)OCC#CI [3-Iodopropynyl butylcarbamate]",
    "reversed-phase LC retention time / min": 12.8
  }
]

# per-item lookup of reversed-phase LC retention time; items listed below
1. CCN(CC)c1nc(=O)cc(C)[nH]1
2. N#C/N=C1/SCCN1Cc1ccc(Cl)nc1

1. 7.54
2. 9.94

* * *

- measurement_notes: collision cross section (TIMS, N2 drift gas) of the primary ion; higher = larger gas-phase ion size
- experimental_context: ionization mode: ESI+; ion species: [M+H]+
Please respond with reported collision cross section for every item in the list.
Numbers only, in Å².

Solved entries:
[
  {
    "compound": "CCN(CCC#N)c1ccc(N=Nc2c(Br)cc([N+](=O)[O-])cc2Br)cc1",
    "units_text": "Å²",
    "collision cross section": 202.21
  },
  {
    "compound": "Cc1cc(=O)oc2cc(N)ccc12",
    "units_text": "Å²",
    "collision cross section": 131.77
  },
  {
    "compound": "CC(=O)[C@H]1CC[C@H]2[C@@H]3C=CC4=CC(=O)CC[C@@]4(C)[C@@H]3CC[C@]12C",
    "units_text": "Å²",
    "collision cross section": 177.44
  },
  {
    "compound": "CCC(C)OC(=O)N1CCCCC1CCO (stereo not drawn)",
    "units_text": "Å²",
    "collision cross section": 152.87
  },
  {
    "compound": "CC1(C)[C@@H](O)CC[C@]2(C)[C@H]3C(=O)C=C4[C@@H]5C[C@@](C)(C(=O)O)CC[C@]5(C)CC[C@@]4(C)[C@]3(C)CC[C@@H]12",
    "units_text": "Å²",
    "collision cross section": 216.71
  }
]

For each entry beneath this line, provide reported collision cross section.
1. COc1cc(C)c(C(=O)c2c(OC)ccc(Br)c2C)c(OC)c1OC
2. O=C1C=C(N(Cc2ccc(Cl)nc2)CC(F)F)CO1
3. CCC(=O)[C@@]1(C)[C@H](C)C[C@H]2[C@@H]3CCC4=CC(=O)C=C[C@]4(C)[C@H]3[C@@H](O)C[C@@]21C [Rimexolone]

184.27
164.36
192.28

* * *

- measurement_notes: reversed-phase LC retention time (C18, 15 min MeOH gradient); higher = more hydrophobic / later elution
- experimental_context: ionization mode: ESI+; ion species: [M+H]+
Give reversed-phase LC retention time for every item shown.

[
  {
    "compound": "CCN1CCCC1CNC(=O)c1cc(S(=O)(=O)CC)c(N)cc1OC (stereo not given) [Amisulpride]",
    "reversed-phase LC retention time": "7.75 min"
  }
]

Dear colleague, could you send me reversed-phase LC retention time for each of the items below? Thanks.
1. Cn1c(=O)c2c(ncn2C)n(C)c1=O
2. CN(C/C=C/C#CC(C)(C)C)Cc1cccc2ccccc12
3. CC1(C)CC(OC(=O)CCCCCCCCC(=O)OC2CC(C)(C)NC(C)(C)C2)CC(C)(C)N1 [Bis(2,2,6,6-tetramethyl-4-piperidyl)sebacate]
4. Cc1cc(C)nc(NS(=O)(=O)c2ccc(N)cc2)n1
5. OCCN1CCN(CC/C=C2/c3ccccc3Sc3ccc(C(F)(F)F)cc32)CC1
6. OC(Cn1cncn1)(c1ccc(F)cc1)c1ccccc1F (stereo not given)
7. CCc1ccc(CCOc2ccc(CC3SC(=O)NC3=O)cc2)nc1 (stereo not given)

1: 7.7 min; 2: 13.8 min; 3: 11.8 min; 4: 7.95 min; 5: 14.9 min; 6: 12.9 min; 7: 11.1 min
